All values here come from patent US20040235889A1.

TARGET DESC: UniProt:P00918
PROTOCOL SUMMARY: Carbonic anhydrase II activation, activity relative to control
Format: biochemical
TEST PARAMETERS: Table 3, linked di-imidazoles of structure III; relative to control level of CA-II activity
I'd be grateful if you could share measured % Activity for these entries.
Numbers only, in %.

[
  {
    "MOLECULE": "c1cn(CCn2ccnc2)cn1 [Effector 24, 1,2-di(1-imidazolyl)ethane]",
    "% Activity (%)": 154
  }
]

Quick one: give me % Activity for each item below, same order please.
1. Cc1nccn1Cn1ccnc1C [Effector 23, di(2-methyl-1-imidazolyl)methane]
2. c1cn(Cn2ccnc2)cn1 [Effector 22, di(1-imidazolyl)methane]
3. Cc1nccn1CCn1ccnc1C [Effector 25, 1,2-di(2-methyl-1-imidazolyl)ethane]

[169, 140, 131]
